- Test system: HCT-15
- experimentNotes: NCI tumour cell line growth inhibition, 48 h
metric: GI50 (µM)
Provide the reading as a plain figure in µM.

Print HCT-15 GI50 for `Cc1ccnc2[nH]c3ccccc3c(=O)c12` . 25.5

Print HCT-15 GI50 for `Cc1c2c(cc[n+]1C)O[B-](c1ccccc1)(c1ccccc1)O2` . 38.3

----------
For each entry below, report its GI50 value.
- Tested on: SN12C
- experimentNotes: NCI tumour cell line growth inhibition, 48 h
Active and inactive are the calls of the source. Cut-off read from the data, not from the text of the source: active = GI50 up to about 1.1 µM and inactive = higher.

Return value of GI50 for input CC1OC(n2cc(F)c(=O)[nH]c2=O)C(O[Si](C)(C)C(C)(C)C)C1O[Si](C)(C)C(C)(C)C (stereo not drawn) , no commentary. 12.4 µM (inactive)

Return value of GI50 for input CCOC(=O)C(NC(=O)CC)(Nc1ccc(S(=O)(=O)Nc2nc(C)cc(C)n2)cc1)C(F)(F)F (stereo not drawn) , no commentary. > 100 µM (inactive)

Return value of GI50 for input NS(=O)(=O)c1ccccc1C(=O)N/N=C(\c1nc2ccc([N+](=O)[O-])cc2[nH]c1=O)C(O)c1ccc([N+](=O)[O-])cc1 (stereo not drawn) , no commentary. > 100 µM (inactive)

Return value of GI50 for input O=c1[nH]c(=O)n(C2OC(CO)C(O)C2O)cc1OCC(F)(F)F (stereo not drawn) , no commentary. > 100 µM (inactive)

Return value of GI50 for input Clc1ccc(C2=Nc3ccccc3SC(c3ccc(Cl)c(Cl)c3)C2)c(Cl)c1 (stereo not drawn) , no commentary. 17.2 µM (inactive)

Return value of GI50 for input COc1cccc(N2C(Cl)C(=O)C2c2c[nH]c3ccccc23)c1 (stereo not drawn) , no commentary. > 100 µM (inactive)

Return value of GI50 for input `COc1ccc2o/c(=N/c3ccccc3)c(C(N)=O)cc2c1` , no commentary. > 100 µM (inactive)

Return value of GI50 for input CC(NC(=O)OCc1ccccc1)NC(=O)C(CC(=O)OC(C)(C)C)NC(=O)OC(C)(C)C (stereo not drawn) , no commentary. > 100 µM (inactive)

Return value of GI50 for input `CCc1ccc2c(c1)/C(=C1/Nc3ccccc3/C1=N/O)C(=O)N2` , no commentary. 5.61 µM (inactive)

Return value of GI50 for input `CC(=O)Nc1ccc(-c2nnc(SCC(=O)Nc3cccc(Cl)c3)o2)cc1` , no commentary. 16 µM (inactive)

Return value of GI50 for input `Cn1c2ccccc2c2c(=S)c3ccccc3ccc21` , no commentary. > 100 µM (inactive)

Return value of GI50 for input `O=C(Nc1ccccc1-c1nn(C(=S)Nc2ccccc2)c(=S)n(C(=S)Nc2ccccc2)c1=O)C(F)(F)F` , no commentary. 26.4 µM (inactive)

Return value of GI50 for input Clc1ccc(C2ON=C(c3ccccc3)N2C23CC4CC(CC(C4)C2)C3)cc1Cl (stereo not drawn) , no commentary. > 10 µM (inactive)

Return value of GI50 for input `O=C1c2cc([N+](=O)[O-])ccc2-c2ccc3c4ccc5c6c(ccc(c7ccc1c2c73)c64)C(=O)c1cc([N+](=O)[O-])ccc1-5` , no commentary. > 100 µM (inactive)

Return value of GI50 for input `[N-]=[N+]=C(C(=O)OCC#CCOC(=O)C(=[N+]=[N-])S(=O)(=O)c1ccccc1)S(=O)(=O)c1ccccc1` , no commentary. > 10 µM (inactive)

Return value of GI50 for input `Nc1ccc(Nc2cc(O)nc(O)n2)cc1` , no commentary. > 100 µM (inactive)

Return value of GI50 for input `Cc1cc(OCC(=O)O)c(Cl)cc1Cl` , no commentary. > 100 µM (inactive)

Return value of GI50 for input `CC(=O)NNc1nc(C)c(C(=O)NNC(=O)C(=O)Nc2c(C)cccc2C)s1` , no commentary. > 100 µM (inactive)

Return value of GI50 for input `N#CSCc1nc2ccc(Cl)cc2c(-c2ccccc2)[n+]1[O-]` , no commentary. 20 µM (inactive)

Return value of GI50 for input `CC(C)=C/C(CC(O)(C(F)(F)F)C(F)(F)F)=N\O` , no commentary. > 100 µM (inactive)

Return value of GI50 for input `CCOP(=O)(OCC)/C(C#N)=C/c1cccn1C(C)C` , no commentary. > 100 µM (inactive)

Return value of GI50 for input `Cc1c(-c2coc(-c3ccc([N+](=O)[O-])cc3)n2)c(=O)n(-c2ccccc2)n1C` , no commentary. > 100 µM (inactive)

Return value of GI50 for input COC(=O)CC1C(=O)OCc2c1cc1n(c2=O)Cc2c-1nc1ccccc1c2OC (stereo not drawn) , no commentary. 41.4 µM (inactive)

Data provenance: ChEMBL document CHEMBL1201862
